test_description: NCI Yeast Anticancer Drug Screen. Data for the mec2-1 strain (AID 157)
measurement_context: S. cerevisiae mec2-1 strain, at 50.0 µM, hits give high values
This is part of a sample that, as a whole, favours compounds with a hit. Of some 79,000 tested, about 15% had one in any assay.
measured_parameter: growth inhibition (%)
Give the value, in units of %, as a plain number.

These solved cases illustrate the format of a correct answer.
O=C(O)c1ccc(C(=O)c2ccccc2C(=O)O)cc1C(=O)O | 5
Clc1ccccc1NCSC1=NCCS1 | -15.8

# input Answer with reported growth inhibition of CC1(C)CC[C@]2(C(=O)O)CC[C@]3(C)C(=CC[C@@H]4[C@@]5(C)CC[C@H](OC6OC(C(=O)O)C(O)C(O)C6O)C(C)(C)[C@@H]5CC[C@]43C)[C@@H]2C1 (stereo partly specified)
# output 91
